Hi there, I'd appreciate the recorded % 25 nM CA200645 binding for every entry that follows.
molecular target: human A3AR (Homo sapiens, UniProt P0DMS8); construct: expressed in transfected cells; assay: LOPAC library primary screen: single concentration (10 μM) inhibition of 25 nM CA200645 binding, PHERAstar FS; details: % of control wells (1% DMSO and 25 nM CA200645); compounds at 10 µM; whole live cells expressing the A3AR; mean ± SD, three experiments in duplicate
Sequence (P0DMS8 whole entry): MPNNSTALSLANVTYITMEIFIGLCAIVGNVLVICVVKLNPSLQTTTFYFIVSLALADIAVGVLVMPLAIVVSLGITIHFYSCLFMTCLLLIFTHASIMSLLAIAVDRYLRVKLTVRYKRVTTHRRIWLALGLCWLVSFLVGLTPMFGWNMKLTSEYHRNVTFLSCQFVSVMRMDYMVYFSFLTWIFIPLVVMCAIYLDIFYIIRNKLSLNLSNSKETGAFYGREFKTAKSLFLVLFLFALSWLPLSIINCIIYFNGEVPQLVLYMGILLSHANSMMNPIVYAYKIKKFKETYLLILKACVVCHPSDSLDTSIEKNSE
Counter-ions that a name gives are not always drawn.
Record the value in %, omitting the unit from your answer.

Input line: Recorded % 25 nM CA200645 binding of O=C1NC(c2cccc([N+](=O)[O-])c2)=CCN1c1ccccc1O [Icilin] , please.
Output line: 88.5

Input line: Thanks! And CC1=C(C)C(=O)C(CCCCC#CCCCC#CCO)=C(C)C1=O [AA-861] ?
Output line: 69.6

Input line: Same question for COc1ccc(C2CNC(=O)C2)cc1OC1CCCC1 (stereo not drawn) [Rolipram] please.
Output line: 98.7

Input line: Then O=C(O)c1cc(=O)c2ccccc2[nH]1 [Kynurenic acid] ?
Output line: 83.5

Input line: How about NC(=Nc1ccccc1)NC(=O)c1nc(Cl)c(N)nc1N [Phenamil methanesulfonate] ?
Output line: 100.4

Input line: Continue with O=C(O)C1=CCCNC1 [Guvacine hydrochloride]
Output line: 99.3

Input line: Also CO[C@H]1O[C@@H]2O[C@@]3(C)CC[C@H]4[C@H](C)CC[C@@H]([C@H]1C)[C@@]24OO3 [Artemether] , if possible.
Output line: 99.4

Input line: For Cc1ccccc1/C=C/C1=NCCN1 [Metrazoline oxalate] then?
Output line: 97.1

Input line: What do we get for CCOC(=O)c1cnc2c(cnn2CC)c1NN=C(C)C [etazolate hydrochloride, reference compound] ?
Output line: 46.2

###

target: human A3AR (Homo sapiens); construct: expressed in transfected cells; test: LOPAC library primary screen: single concentration (10 μM) inhibition of 25 nM CA200645 binding, PHERAstar FS
Structures can show the parent of a compound that is named as a salt.
TEST_READOUT: % 25 nM CA200645 binding
Show the value, then the unit it is measured in.

Input line: % 25 nM CA200645 binding lookup needed for C=CCn1c(=O)c2c(nc(-c3ccc(S(=O)(=O)O)cc3)n2C)n(C)c1=O , thanks.
Output line: 97.5 ± 9.3%

Input line: Input CCn1cc(C(=O)O)c(=O)c2cc(F)c(N3CCNC(C)C3)c(F)c21 (centres unmarked) [Lomefloxacin hydrochloride]
Output line: 96.9 ± 10.1%

Input line: Query CCN(CC)CCCCNc1ncc2cc(-c3c(Cl)cccc3Cl)c(NC(=O)NC(C)(C)C)nc2n1 next
Output line: 90.7 ± 9.1%

Input line: Likewise for Br.CO[C@H]1CC=C2CCN3CCC4=C(CC(=O)OC4)[C@]23C1 [Dihydro-beta-erythroidine hydrobromide] ?
Output line: 94.0 ± 5.4%

Input line: Try the molecule Cc1ncc(CNC(=O)N(CCCl)N=O)c(N)n1 [Nimustine hydrochloride]
Output line: 95.2 ± 13.6%

Input line: Record: Br.CCCN(CCC)[C@@H]1CCc2ccc(O)cc2C1 [R-(+)-7-Hydroxy-DPAT hydrobromide]
Output line: 110.9 ± 7.0%

Input line: Proceed to CCC(C)N(C)C(=O)c1cc2ccccc2c(-c2ccccc2Cl)n1 (centres unmarked)
Output line: 93.2 ± 6.1%

Input line: # repeat for N[C@H](C(=O)O)[C@H]1C[C@@H]1C(=O)O
Output line: 107.7 ± 15.6%
